The measured values listed here are drawn from BindingDB's records for doi:10.1016/s0968-0896(02)00069-x.

experimentalTarget: Cyclin-dependent kinase 1/G2/mitotic-specific cyclin-B (Marthasterias glacialis, UniProt P15206+Q9DGD3)
Sequence (Q9DGD3 whole entry): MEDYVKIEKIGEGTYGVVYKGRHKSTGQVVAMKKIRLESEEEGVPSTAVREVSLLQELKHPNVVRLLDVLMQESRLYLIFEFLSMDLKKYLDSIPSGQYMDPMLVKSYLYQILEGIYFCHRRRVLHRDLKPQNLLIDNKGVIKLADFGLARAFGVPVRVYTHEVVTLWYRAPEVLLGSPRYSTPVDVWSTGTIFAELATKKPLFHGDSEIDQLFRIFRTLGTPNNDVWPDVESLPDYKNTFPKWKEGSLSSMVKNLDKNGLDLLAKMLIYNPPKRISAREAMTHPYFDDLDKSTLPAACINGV
Sequence (P15206 whole entry): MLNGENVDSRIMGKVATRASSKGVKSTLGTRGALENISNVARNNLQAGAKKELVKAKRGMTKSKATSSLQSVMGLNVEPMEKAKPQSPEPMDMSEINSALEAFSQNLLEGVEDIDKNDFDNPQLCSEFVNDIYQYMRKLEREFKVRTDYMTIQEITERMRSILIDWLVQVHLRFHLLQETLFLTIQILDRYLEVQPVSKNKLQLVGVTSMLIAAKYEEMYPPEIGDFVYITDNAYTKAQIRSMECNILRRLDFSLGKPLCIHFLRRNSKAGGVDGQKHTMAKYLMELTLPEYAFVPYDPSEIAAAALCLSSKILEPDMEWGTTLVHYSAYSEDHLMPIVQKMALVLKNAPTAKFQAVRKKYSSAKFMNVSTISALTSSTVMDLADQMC
testName: Kinase Inhibition Assay
studyConditions: pH 7.2; 30 °C
valueKind: IC50

Indicate the recorded IC50 value for this molecule: "CCN(CC)CCn1nc(N)c2nc3cc(C)c(C)cc3nc21"
> 10 µM

Indicate the recorded IC50 value for this molecule: "CN(C)CCn1nc(N)c2nc3ccccc3nc21"
> 10 µM

Indicate the recorded IC50 value for this molecule: "Cc1cc2nc3c(N)nn(CCCN(C)C)c3nc2cc1C"
> 10 µM

Indicate the recorded IC50 value for this molecule: "CN(C)CCn1nc(N)c2nc3cc(Cl)ccc3nc21"
> 10 µM

Indicate the recorded IC50 value for this molecule: "Nc1n[nH]c2nc3ccc(C(F)(F)F)cc3nc12"
4.5 µM

Indicate the recorded IC50 value for this molecule: "Nc1nn(C(=O)c2ccncc2)c2nc3ccccc3nc12"
> 10 µM

Indicate the recorded IC50 value for this molecule: "CCN(CC)CCn1nc(N)c2nc3ccccc3nc21"
> 10 µM

Indicate the recorded IC50 value for this molecule: "Cc1cc2nc3[nH]nc(N)c3nc2cc1C"
21 µM

Indicate the recorded IC50 value for this molecule: "CN(C)CCCn1nc(N)c2nc3cc(Cl)ccc3nc21"
> 10 µM

Indicate the recorded IC50 value for this molecule: "CN(C)CCCn1nc(N)c2nc3ccccc3nc21"
> 10 µM

Indicate the recorded IC50 value for this molecule: "Cc1ccc2nc3[nH]nc(N)c3nc2c1"
3.5 µM

Indicate the recorded IC50 value for this molecule: "CCN(CC)CCn1nc(N)c2nc3cc(Cl)ccc3nc21"
> 10 µM

Indicate the recorded IC50 value for this molecule: "Clc1ccc2nc3[nH]nc(Cl)c3nc2c1"
15 µM
